Origin of the recorded values: paper PMC9482650

Biological target: T1, MPP6, Q9NZW5
T1 sequence (Q9NZW5 125-219, limits assumed, looked up): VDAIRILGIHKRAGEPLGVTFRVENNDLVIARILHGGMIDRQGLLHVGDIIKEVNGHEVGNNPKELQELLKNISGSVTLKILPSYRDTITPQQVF
Assay: holdup assay
Design: key: below the threshold = too weak to quantify, mostly under pKd 3.1 to 4
Details: plain residues with an end cap or a label only (N-terminal biotin on a linker: ado-ado)
readout_kind: pKd

Would you please look over these solved cases?
DYSNLRETDI [ADRA1D, P25100]    3.63
TFSRRPKTRV [CD226, Q15762]    below the threshold
DLLGGGSDSI [TNRC6B, Q9UPQ9]    below the threshold
HDDYFYHDEL [RCN2, Q14257]    3.74
NISARRFTLC [FAM167B, Q9BTA0]    below the threshold
EPAKETTTNV [SLC2A3, P11169]    3.81

Now turn to the next binder.
Measured pKd of PAALPESTHM [SLC9A3, P48764] : below the threshold
